# maps each entry to its TGI
test system: SK-OV-3 ovarian; test: NCI tumour cell line growth inhibition, 48 h
Number only, in µM; omit the unit.

Past entries and their recorded results:
molecule: Cc1ccc2ncnc(N(CC(C)C)CC(C)C)c2c1
unit-abbreviation: µM
TGI: 29.7

molecule: CN(C)P(=O)(Oc1ccc(CC(NC(=O)OCc2ccccc2)C(=O)OCc2ccccc2)cc1)N(C)C (stereo not given)
unit-abbreviation: µM
TGI: 33.2

molecule: C/C=C/C1=CC(=O)C(O)C1O (stereo not given)
unit-abbreviation: µM
TGI: 130

Next item in the queue.
Item CC(=O)NC(c1nc2cc(C)c(C)cc2[nH]1)c1nc2cc(C)c(C)cc2[nH]1 has what recorded TGI? 71.9

====

test system: UACC-257 melanoma; experiment: NCI tumour cell line growth inhibition, 48 h
measured-metric: TGI

molecule: CC1=C/C(=N\O)C(C(O)(C(F)(F)F)C(F)(F)F)C(C)(C)C1 (stereo not given)
TGI: > 10 µM

molecule: O=CNc1ncn[nH]1
TGI: > 100 µM

molecule: COC1=CCC=C(C[C@@H]2NCCc3cc(OC)c(OC)cc32)C1
TGI: > 100 µM

molecule: CCC(=O)c1ccc2[nH]c3c(C)c4c(=O)cc(C)[nH]c4c(C)c3c2c1
TGI: > 100 µM

Proceed to the following item.
Item under review: COc1ccc(OCc2ccc3nc(-c4ccccc4)c(Cl)nc3c2)cc1 . Reported TGI? > 100 µM

====

Listed here: items and their measured GI50.
test system: SK-MEL-5 melanoma; assay: NCI tumour cell line growth inhibition, 48 h

These solved cases illustrate the format of a correct answer.
compound: COc1ccc2cc(-c3cc4c(oc3=O)-c3ccccc3OC4O)c(=O)oc2c1 (stereo not given)
tgt: SK-MEL-5 melanoma
GI50: 13.2 µM
--
compound: C[C@H](Nc1ncnc2nc[nH]c12)c1cc2ccc(F)cc2nc1-c1ccccn1
tgt: SK-MEL-5 melanoma
GI50: 91.2 µM

Which measured GI50 belongs to O=C(c1ccccc1)c1ccc(Oc2ccc([N+](=O)[O-])cc2[N+](=O)[O-])cc1 , tested on SK-MEL-5 melanoma? 2.02 µM

Next compound: O=C(CN(/C=C/C(=O)C(F)(F)F)c1ccc(Cl)cc1)c1ccccc1 12.1 µM

Repeat for the following compound: COc1ccc(C(=O)COC(=O)[C@H](C[Se][Se]C[C@H](NC(=O)c2ccc(Br)cc2F)C(=O)OCC(=O)c2ccc(OC)cc2)NC(=O)c2ccc(Br)cc2F)cc1 0.596 µM

====

system: MDA-MB-231 breast; assay: NCI tumour cell line growth inhibition, 48 h
Some compounds, each annotated with its measured TGI.

These solved cases illustrate the format of a correct answer.
compound: c1cc2c(c(NC3=NCCO3)c1)CCC2
tgt: MDA-MB-231 breast
TGI: > 100 µM

compound: O=CNc1ncn[nH]1
tgt: MDA-MB-231 breast
TGI: > 100 µM

compound: Clc1cc(Cl)cc(C2ON=C(c3ccccc3)N2C23CC4CC(CC(C4)C2)C3)c1 (stereo not given)
tgt: MDA-MB-231 breast
TGI: > 10 µM

compound: COC(=O)/C=C1/CCC(C)(C(=O)NS(=O)(=O)c2ccc(C)cc2)C1(C)C (stereo not given)
tgt: MDA-MB-231 breast
TGI: > 100 µM

Now, please, on to the next compound.
# query: TGI | item Cc1nc2c(=O)n(-c3ccccc3)c3ccccc3c2o1 | system: MDA-MB-231 breast > 100 µM
